Test: Three-treatment crossover pharmacokinetics of IN nalmefene, three dosing regimens (Example 13)
Details: human, plasma, other: intranasal (IN spray), 6 mg, […], Median; Time 24.0; T3: 6 mg nalmefene HCl IN, two 0.1 mL sprays in one nostril
measured.attribute: concentration at 24 h (ng/mL)
// note: answer is a bare numeric in ng/mL

response.value for C=C1CC[C@@]2(O)[C@H]3Cc4ccc(O)c5c4[C@@]2(CCN3CC2CC2)[C@H]1O5 [Nalmefene] (field: concentration at 24 h) = 0.729

###

Assay: Three-treatment crossover pharmacokinetics of IN nalmefene, three dosing regimens (Example 13)
Settings: human, plasma, other: intranasal (IN spray), 3 mg, […], Median, T1 (3 mg IN, one spray in one nostril); time 48.0
measured.attribute: concentration at 48 h (ng/mL)
Form entry: value (ng/mL) — number only.

In plain terms, "C=C1CC[C@@]2(O)[C@H]3Cc4ccc(O)c5c4[C@@]2(CCN3CC2CC2)[C@H]1O5" has a documented concentration at 48 h of 0.088

###

Test: Three-treatment crossover pharmacokinetics of IN nalmefene, three dosing regimens (Example 13)
Conditions: human, plasma, other: intranasal (IN spray), 6 mg, […], Mean; Time 6.00; T3: 6 mg nalmefene HCl IN, two 0.1 mL sprays in one nostril
measured.attribute: concentration at 6 h

// concentration at 6 h lookup, compound = "C=C1CC[C@@]2(O)[C@H]3Cc4ccc(O)c5c4[C@@]2(CCN3CC2CC2)[C@H]1O5" , result: 3.69 ng/mL

###

Assay: Three-treatment crossover pharmacokinetics of IN nalmefene, three dosing regimens (Example 13)
Conditions: human, plasma, other: intranasal (IN) spray, 3 mg, […], Min, T1 (3 mg IN, one spray in one nostril); time 3.00
measured.attribute: concentration at 3 h (ng/mL)
Return type: number; implicit unit ng/mL.

response.value for C=C1CC[C@@]2(O)[C@H]3Cc4ccc(O)c5c4[C@@]2(CCN3CC2CC2)[C@H]1O5 [Nalmefene] (field: concentration at 3 h) = 2.16

###

Assay: Two-period crossover pharmacokinetics of nalmefene 3 mg IN vs 1.0 mg IM (Example 12)
Conditions: human, plasma, intramuscular, 1 mg, Mean plasma concentration, Treatment B 1.0 mg IM; […]
measured.attribute: concentration at 24 h (ng/mL)
// units = ng/mL; emit number, no label

Quick note, concentration at 24 h for "C=C1CC[C@@]2(O)[C@H]3Cc4ccc(O)c5c4[C@@]2(CCN3CC2CC2)[C@H]1O5" landed at 0.223

###

Assay: Two-period crossover pharmacokinetics of nalmefene 3 mg IN vs 1.0 mg IM (Example 12)
Details: human, plasma, other: intranasal, 3 mg, Mean plasma concentration, Treatment A 3.0 mg IN; […]
measured.attribute: concentration at 12 h (ng/mL)
Please state the figure in ng/mL; there is no need to write the unit.

Sample C=C1CC[C@@]2(O)[C@H]3Cc4ccc(O)c5c4[C@@]2(CCN3CC2CC2)[C@H]1O5 [Nalmefene] ; concentration at 12 h observed: 0.87

###

Assay: Three-treatment crossover pharmacokinetics of IN nalmefene, three dosing regimens (Example 13)
Conditions: human, plasma, other: intranasal (IN spray), 6 mg
measured.attribute: half-life
Report field: quantity (unit follows the number).

"C=C1CC[C@@]2(O)[C@H]3Cc4ccc(O)c5c4[C@@]2(CCN3CC2CC2)[C@H]1O5" has a reported half-life of 11.3 h
